Recorded IC50 by entry
Biological target: Ionotropic glutamate receptor NMDA 1/2D (Rattus norvegicus, UniProt P35439+Q62645)
Assay: Negative allosteric modulation of rat GluN1a/GluN2D receptor expressed in Xenopus laevis oocytes assessed as suppression of 100 uM glutamate and 30 uM glycine induced-current by voltage clamp recording method
Type: cell-based
The reply must contain the numeric value and, after it, the unit.

Reference set, count: 2
INSERT INTO measurements (molecule, target_entity, outcome_measure, test_result) VALUES
  ('COC(=O)c1c(NC(=O)CC2SC(N)=NC2=O)sc2c1CCCC2 (racemic)', 'Ionotropic glutamate receptor NMDA 1/2D (Rattus norvegicus, UniProt P35439+Q62645)', 'IC50', '1.1 µM'),
  ('COC(=O)c1c(NC(=O)CC2SC(N)=NC2=O)sc2c1CCC(C)C2 (racemic)', 'Ionotropic glutamate receptor NMDA 1/2D (Rattus norvegicus, UniProt P35439+Q62645)', 'IC50', '0.3 µM');

Task: Fill blank: measured IC50 of the molecule CCOC(=O)c1cc(CC)sc1NC(=O)CC1SC(=N)NC1=O (racemic) is ____.
Output: 2.6 µM

###

Molecular target: Glutamate NMDA receptor; Grin1/Grin2a (Rattus norvegicus, UniProt P35439+Q00959)
Sequence (Q00959 whole entry, other chains not shown): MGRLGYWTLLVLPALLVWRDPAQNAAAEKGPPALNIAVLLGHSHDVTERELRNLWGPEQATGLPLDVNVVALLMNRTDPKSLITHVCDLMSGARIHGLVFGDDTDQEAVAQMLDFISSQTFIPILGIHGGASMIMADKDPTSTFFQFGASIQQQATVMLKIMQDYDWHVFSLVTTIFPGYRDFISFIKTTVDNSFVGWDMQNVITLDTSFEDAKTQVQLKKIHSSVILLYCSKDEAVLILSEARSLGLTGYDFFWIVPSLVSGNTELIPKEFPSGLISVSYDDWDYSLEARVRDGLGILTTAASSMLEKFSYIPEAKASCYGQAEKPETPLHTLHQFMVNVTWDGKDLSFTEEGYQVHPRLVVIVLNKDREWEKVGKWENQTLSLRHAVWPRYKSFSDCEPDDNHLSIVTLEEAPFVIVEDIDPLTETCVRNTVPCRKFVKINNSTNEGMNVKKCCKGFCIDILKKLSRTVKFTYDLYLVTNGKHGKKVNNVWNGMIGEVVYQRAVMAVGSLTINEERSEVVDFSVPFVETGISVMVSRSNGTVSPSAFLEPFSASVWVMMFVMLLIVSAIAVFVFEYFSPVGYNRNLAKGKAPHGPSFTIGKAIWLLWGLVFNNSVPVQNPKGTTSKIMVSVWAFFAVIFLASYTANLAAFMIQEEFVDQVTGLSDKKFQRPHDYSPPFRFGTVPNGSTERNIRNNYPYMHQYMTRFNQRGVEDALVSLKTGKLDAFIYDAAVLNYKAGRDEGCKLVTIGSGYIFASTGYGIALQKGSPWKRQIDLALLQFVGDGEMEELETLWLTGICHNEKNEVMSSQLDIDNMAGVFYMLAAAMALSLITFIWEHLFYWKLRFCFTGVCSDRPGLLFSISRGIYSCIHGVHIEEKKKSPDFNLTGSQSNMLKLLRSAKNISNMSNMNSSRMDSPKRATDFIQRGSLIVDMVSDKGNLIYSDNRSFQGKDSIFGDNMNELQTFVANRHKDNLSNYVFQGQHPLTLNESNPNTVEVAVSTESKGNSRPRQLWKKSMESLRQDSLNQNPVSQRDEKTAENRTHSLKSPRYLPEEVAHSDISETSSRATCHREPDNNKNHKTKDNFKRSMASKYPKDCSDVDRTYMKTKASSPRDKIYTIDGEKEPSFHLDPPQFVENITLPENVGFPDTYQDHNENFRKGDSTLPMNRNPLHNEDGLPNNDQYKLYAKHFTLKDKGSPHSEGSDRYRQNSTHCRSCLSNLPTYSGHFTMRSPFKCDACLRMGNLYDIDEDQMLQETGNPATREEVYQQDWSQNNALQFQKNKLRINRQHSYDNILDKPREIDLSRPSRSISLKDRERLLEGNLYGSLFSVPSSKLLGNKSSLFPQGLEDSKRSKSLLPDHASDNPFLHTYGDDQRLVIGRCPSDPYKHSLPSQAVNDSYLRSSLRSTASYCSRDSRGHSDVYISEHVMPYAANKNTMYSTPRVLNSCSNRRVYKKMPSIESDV
Assay: Negative allosteric modulation of rat GluN1a/GluN2A receptor expressed in Xenopus laevis oocytes assessed as suppression of 100 uM glutamate and 30 uM glycine glycine induced-current by voltage clamp recording method
pIC50: −log10 of the molar value.
Values of pIC50 greater than or equal to 5 map to TRUE; values below map to FALSE.

INSERT INTO assay_data (compound, discrete_label) VALUES
  ('CCOC(=O)c1c(NC(=O)CC2SC(N)=NC2=O)sc2c1CCC(C)C2 (racemic)', 'TRUE');

Task: Evaluate CCOC(=O)c1c(NC(=O)CC2SC(=N)NC2=O)sc2c1CCOC2 (racemic) : pIC50 at minimum 5?
Output: TRUE

Task: Evaluate COC(=O)c1c(NC(=O)CC2SC(N)=NC2=O)sc2c1CCC(C)C2 (racemic) : pIC50 at minimum 5?
Output: TRUE

Task: Evaluate CCOC(=O)c1c(NC(=O)CC2SC(=N)NC2=O)sc2c1CCSC2 (racemic) : pIC50 at minimum 5?
Output: TRUE

Task: Evaluate CCc1c(C)sc(NC(=O)CC2SC(=N)NC2=O)c1C(=O)OC (racemic) : pIC50 at minimum 5?
Output: FALSE

Task: Evaluate COC(=O)c1c(NC(=O)CC2SC(N)=NC2=O)sc2c1CCCC2 (racemic) : pIC50 at minimum 5?
Output: TRUE

Task: Evaluate CCOC(=O)c1c(NC(=O)CC2SC(=N)NC2=O)sc(C)c1C (racemic) : pIC50 at minimum 5?
Output: FALSE

Task: Evaluate CCOC(=O)c1c(NC(=O)CC2SC(=N)NC2=O)sc2c1CCC(C)(C)C2 (racemic) : pIC50 at minimum 5?
Output: FALSE

Task: Evaluate CCOC(=O)c1c(NC(=O)CC2SC(=N)NC2=O)sc2c1CCC(CC)C2 (racemic) : pIC50 at minimum 5?
Output: TRUE

###

Molecular target: Glutamate NMDA receptor; Grin1/Grin2c (Rattus norvegicus, UniProt P35439+Q00961)
Sequence (Q00961 whole entry, other chains not shown): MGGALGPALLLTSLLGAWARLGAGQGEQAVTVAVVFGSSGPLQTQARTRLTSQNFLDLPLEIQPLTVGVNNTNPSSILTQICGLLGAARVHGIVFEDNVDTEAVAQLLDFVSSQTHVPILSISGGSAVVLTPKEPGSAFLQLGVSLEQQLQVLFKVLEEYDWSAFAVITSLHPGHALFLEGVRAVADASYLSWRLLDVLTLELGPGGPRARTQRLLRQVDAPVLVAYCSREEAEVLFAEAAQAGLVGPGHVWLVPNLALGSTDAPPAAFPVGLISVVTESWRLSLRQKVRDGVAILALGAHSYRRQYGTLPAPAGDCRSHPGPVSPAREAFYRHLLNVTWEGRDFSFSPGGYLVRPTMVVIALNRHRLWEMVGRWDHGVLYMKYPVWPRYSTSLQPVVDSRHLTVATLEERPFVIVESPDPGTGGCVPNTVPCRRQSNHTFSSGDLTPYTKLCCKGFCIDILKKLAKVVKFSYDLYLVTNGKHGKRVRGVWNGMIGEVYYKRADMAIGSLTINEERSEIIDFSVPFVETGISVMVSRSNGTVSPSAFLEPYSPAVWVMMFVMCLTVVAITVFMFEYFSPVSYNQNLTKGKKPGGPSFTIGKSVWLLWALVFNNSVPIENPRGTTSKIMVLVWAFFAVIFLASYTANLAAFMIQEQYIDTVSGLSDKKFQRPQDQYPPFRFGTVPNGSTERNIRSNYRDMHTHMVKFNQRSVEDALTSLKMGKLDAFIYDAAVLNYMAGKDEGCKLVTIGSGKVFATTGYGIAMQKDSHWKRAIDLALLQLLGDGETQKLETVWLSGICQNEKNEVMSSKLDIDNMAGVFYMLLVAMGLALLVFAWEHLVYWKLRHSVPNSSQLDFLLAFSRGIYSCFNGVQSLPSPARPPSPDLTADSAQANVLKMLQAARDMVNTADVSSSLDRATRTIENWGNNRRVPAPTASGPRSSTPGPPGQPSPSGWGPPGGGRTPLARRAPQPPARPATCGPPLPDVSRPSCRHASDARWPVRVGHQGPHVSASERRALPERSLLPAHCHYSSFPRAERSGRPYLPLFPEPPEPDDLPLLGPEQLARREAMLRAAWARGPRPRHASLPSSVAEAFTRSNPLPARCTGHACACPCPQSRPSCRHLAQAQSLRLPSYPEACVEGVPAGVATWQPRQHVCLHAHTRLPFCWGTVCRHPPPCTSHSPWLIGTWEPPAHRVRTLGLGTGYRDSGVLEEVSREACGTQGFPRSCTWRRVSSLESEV
Assay: Negative allosteric modulation of rat GluN1a/GluN2C receptor expressed in Xenopus laevis oocytes assessed as suppression of 100 uM glutamate and 30 uM glycine induced-current by voltage clamp recording method
outcome.measure: pIC50
Field pIC50 (float): negative decimal logarithm of the concentration in molar.

Reference set, count: 3
INSERT INTO assay_data (compound, test_result) VALUES
  ('CCc1c(C)sc(NC(=O)CC2SC(=N)NC2=O)c1C(=O)OC (racemic)', 5.17),
  ('COC(=O)c1ccsc1NC(=O)CC1SC(=N)NC1=O (racemic)', 4.39),
  ('CCOC(=O)c1c(NC(=O)CC2SC(=N)NC2=O)sc(C)c1C (racemic)', 5.09);

Task: Fill blank: measured pIC50 of the compound CCOC(=O)c1cc(CC)sc1NC(=O)CC1SC(=N)NC1=O (racemic) is ____.
Output: 5.43

Task: Fill blank: measured pIC50 of the compound CCOC(=O)c1c(NC(=O)CC2SC(=N)NC2=O)sc2c1CCC(F)(F)C2 (racemic) is ____.
Output: 5.85

Task: Fill blank: measured pIC50 of the compound COC(=O)c1c(NC(=O)CC2SC(=N)NC2=O)sc(C)c1C (racemic) is ____.
Output: 5.01

Task: Fill blank: measured pIC50 of the compound CCOC(=O)c1c(NC(=O)CC2SC(=N)NC2=O)sc2c1CCC(C)(C)C2 (racemic) is ____.
Output: 5.03

Task: Fill blank: measured pIC50 of the compound CCOC(=O)c1c(NC(=O)CC2SC(=N)NC2=O)sc2c1CCOC2 (racemic) is ____.
Output: 5.54

Task: Fill blank: measured pIC50 of the compound CCOC(=O)c1c(NC(=O)CC2SC(N)=NC2=O)sc2c1CCC(C)C2 (racemic) is ____.
Output: 6.15

Task: Fill blank: measured pIC50 of the compound CCOC(=O)c1cc(C)sc1NC(=O)CC1SC(=N)NC1=O (racemic) is ____.
Output: 4.95

Task: Fill blank: measured pIC50 of the compound COC(=O)c1c(NC(=O)CC2SC(N)=NC2=O)sc2c1CCC(C)C2 (racemic) is ____.
Output: 6.52

Task: Fill blank: measured pIC50 of the compound N#Cc1c(NC(=O)CC2SC(=N)NC2=O)sc2c1CCCC2 (racemic) is ____.
Output: 5.54

Task: Fill blank: measured pIC50 of the compound COC(=O)c1c(NC(=O)CC2SC(N)=NC2=O)sc2c1CCCC2 (racemic) is ____.
Output: 6.00

Task: Fill blank: measured pIC50 of the compound CCOC(=O)c1c(NC(=O)CC2SC(=N)NC2=O)sc2c1CCCC2 (racemic) is ____.
Output: 5.92

Task: Fill blank: measured pIC50 of the compound CCc1cc(C(=O)OC)c(NC(=O)CC2SC(N)=NC2=O)s1 (racemic) is ____.
Output: 5.60

Task: Fill blank: measured pIC50 of the compound CCOC(=O)c1c(NC(=O)CC2SC(=N)NC2=O)sc2c1CCSC2 (racemic) is ____.
Output: 6.10

Task: Fill blank: measured pIC50 of the compound CCOC(=O)c1c(NC(=O)CC2SC(=N)NC2=O)sc2c1CCC(CC)C2 (racemic) is ____.
Output: 6.05

###

Target: Ionotropic glutamate receptor NMDA 1/2D (Rattus norvegicus) (UniProt P35439+Q62645)
Test: Negative allosteric modulation of rat GluN1a/GluN2D receptor expressed in Xenopus laevis oocytes assessed as suppression of 100 uM glutamate and 30 uM glycine induced-current at saturating compound level by voltage clamp recording method
Assay type: cell-based
Recorded inhibition by entry
Form entry: value (%) — number only.

Reference set, count: 5
INSERT INTO assay_data (compound, target_entity, unit_text, test_result) VALUES
  ('COC(=O)c1c(NC(=O)CC2SC(N)=NC2=O)sc2c1CCC(C)C2 (racemic)', 'Ionotropic glutamate receptor NMDA 1/2D (Rattus norvegicus) (UniProt P35439+Q62645)', '%', 94),
  ('CCOC(=O)c1cc(CC)sc1NC(=O)CC1SC(=N)NC1=O (racemic)', 'Ionotropic glutamate receptor NMDA 1/2D (Rattus norvegicus) (UniProt P35439+Q62645)', '%', 94),
  ('CCOC(=O)c1c(NC(=O)CC2SC(=N)NC2=O)sc2c1CCSC2 (racemic)', 'Ionotropic glutamate receptor NMDA 1/2D (Rattus norvegicus) (UniProt P35439+Q62645)', '%', 84),
  ('COC(=O)c1c(NC(=O)CC2SC(=N)NC2=O)sc(C)c1C (racemic)', 'Ionotropic glutamate receptor NMDA 1/2D (Rattus norvegicus) (UniProt P35439+Q62645)', '%', 94),
  ('N#Cc1c(NC(=O)CC2SC(=N)NC2=O)sc2c1CCCC2 (racemic)', 'Ionotropic glutamate receptor NMDA 1/2D (Rattus norvegicus) (UniProt P35439+Q62645)', '%', 63);

Task: Item CCOC(=O)c1c(NC(=O)CC2SC(=N)NC2=O)sc2c1CCOC2 (racemic) with Ionotropic glutamate receptor NMDA 1/2D (Rattus norvegicus) (UniProt P35439+Q62645) - inhibition?
Output: 41

Task: Item CCOC(=O)c1c(NC(=O)CC2SC(=N)NC2=O)sc(C)c1C (racemic) with Ionotropic glutamate receptor NMDA 1/2D (Rattus norvegicus) (UniProt P35439+Q62645) - inhibition?
Output: 81

Task: Item CCc1cc(C(=O)OC)c(NC(=O)CC2SC(N)=NC2=O)s1 (racemic) with Ionotropic glutamate receptor NMDA 1/2D (Rattus norvegicus) (UniProt P35439+Q62645) - inhibition?
Output: 98
